Experiment: yeast display, Sf9 membrane polyspecificity reagent, FACS + sequencing; frameworks hold sequencing errors
metric.name: polyreactivity (PSR sort gate)

* QVQLVESGGGIVQAGGSLRLSFAASGSTFNSNVMGWYRQAPGKERELVAAISRSGGNTYYADSVKGRFTISRDNAKNTVYLLMNSLKPEDTAVYYCNKAGRYPYDYWGQGTQVTVSS | high polyreactivity
* QVQLVESGGGLVQAGGSLRLSCAASGSIFGAYAMGWSRQAPGKERELVAAISGSGTSTYYADSVKGRFTISRDNAKNTVYLQMNSLKQEDTAVYYCAADGTYFYIYLGDRFDYWGQGTQVTVSS | low polyreactivity
* QVQLVESGGGLVQAGGSLRLSCAASGRIFNGNAMVWYRQAPGKERELVASINVRGGRTYYADSVKGRFTISRDNAKNTVYLQMNSLKPEDTAVYYWYADYAWYQRKSTVDYDYWGQVTQVTVSS | low polyreactivity
* QVQLVESGGGLVQAGGSLRLSCAASGRTFGSYAMGWYRQAPGKERELVAAINWSGSSTYYADSVKGRFTISRDNAKNTVYLQMNSLKPEDTAVYYCAATPSFYRSYQGMDYWGQGTQVTVSS | high polyreactivity

I have this sequence here, QVQLVESGGGLVQAGGSLRLSCAASGSTFHRYTMGWYRQAPGKERELVAAISSGVNTDYADSVKGRFTISRDNAKNTVYLQMNSLKPEDTEVYYCNTSFGSPQVVRYEYWGQGTQVTVSS , and I need its recorded polyreactivity (PSR sort gate). low polyreactivity

###

Test: yeast display, Sf9 membrane polyspecificity reagent, FACS + sequencing; frameworks hold sequencing errors
metric.name: polyreactivity (PSR sort gate)

- QVQLVESGGGLVQAGGSLRLSCAASGSTFDGNAKGWYRQAPGKERELVATINSGSSTNYADSVKGRFTISRDNAKNTVYLQMISLKPEDTAVFYCNVDSGSDSLVYSVRYNYWGQGTQVTVSS: low polyreactivity
- QVQLVESGGCLVQAGGSLRLSCAASGSSFTSNSMGWSRHAPGKERELVAAISSCGGSTYYADSVKGRFTISRDNATQTVYIQMNSLKPEDTAVYYCAADVHWPYRYDYWGQGTQVTVSS: low polyreactivity

###

Assay: yeast display, Sf9 membrane polyspecificity reagent, FACS + sequencing; frameworks hold sequencing errors
metric.name: polyreactivity (PSR sort gate)

Worked examples, 10 sequences total:
• QVQLEESGGGLVQAGGSLRLSCAASGRSFWPNAMGWYRQAPGKERELVAAISSGGSTNYADSVKVRFTISRDNAKNTVYLQMNSLKPEDTAVYYCASDGQGDKYDYYGHNFWGQGTQVTVSS = low polyreactivity
• QVQLVESGGGFFQAGGSLRLSCAASGSTFGYYTMGWYRQAPGKERELVAAISSGGSRTNYADSVKGRFTISRDNAKNTVYLQMNILKPEDTAVYYCARQSYGGTNRYYYWGQGTQVTVSS = high polyreactivity
• QVQLVESGGGLDQAGGSLRLTCAASGSTFYLYDMGWYRQAPGKERELVAVISWSGGSTSYADSVKGRFTISSDNAKNTVYLHMNSLTPEDTAVYYCAAAIGVYYIDYRYLGTVEYWGQGTQVTVSS = low polyreactivity
• QVQLVESGGGLVQAGGSLRLSCAASGFIFDAYAMGWYRQAPGKERELVAAIDSGGSTDYADSVKGRFTISRDNAKNTVYLQMNSLKPEDTAVYYCNAERAYLWWYNFDYWGQGTQVTVSS = low polyreactivity
• QVQLVESGGGLVQAGGSLRLSCAASGFTFWEYAMGWYRQAPGKERELVAAISSRGTRTYYADSVKGRFTISRDNAKNTVYLQMNSLKPEDTAVYYCATAIPDPDYIHNYWGQGTQVTVSS = high polyreactivity
• QVQLVESGGGLVQAGGSLRLSCAASGFTFSRYTMGWYRQAPGKERELVAAINRRGGSTYYADSVKGRFTISRDNAKNTVYLQMNSLKPEDTAVYYCAAAVYLGRFGVILGYWGQGTQVTVSS = high polyreactivity
• QVQLVESGGGLVQAGGSLRLSCAASGSISKYTMGWYRQAPGKERELVAAINWSGGSTYADSVKGRFTISRDNAKNTVYLQMNSLKPEATAVYYCNARAQRGYFGYRYNYWGQGTQVTVSS = high polyreactivity
• QVQLVESGGGLVQAGGSLRLSCAASGFIFGRNAMGWYRQAPGKERELVAVISKRSGNTYYADSVKGRFTISRDNAKNTVYLQMNSLKPEDTAVYYCNAVDQKLLRYDYWGQGTQVTVSS = high polyreactivity
• QVQLVESGGGLVQAGGSLRLSCAATGFIVAWYAMGWYRQAPGKERELVAAISSSVGSTYYADSVKGRFTISRDIAKNTVYLQMNSLKPEDTAVYYCNADEYWASGYDPYDYWGQGTQVTVSS = low polyreactivity
• QVQLVESGGGLVQAGGSLRLSCASSGRTFYLNAMGWYRQAPGKERELVAAISKRGGSTYYADSVKGRFTISRDNAKNTVYLQMNSLKPEDTAVYYCAKGFSFYSPRYDYWGQGTQVTVSS = high polyreactivity

I have this sequence here, QVQLVESGGGLVQAGGSLRLSCAASGSTFYPNAMGRYRQAPGKERELVAAISRGTRTKYADSVKGRFTISRDNAKNNVYLQMNSLKPEDTAVYYCAADTGTGLDWGQGTQVNVSS , and I need its recorded polyreactivity (PSR sort gate). high polyreactivity

Note, next up: QVQLVESGGGLVQAGGSLRLSCAASGRIFGIYAMGWYRQAPGKERVLVAAISRSGGSTYYADSVKGRFTISRDNAKNTVYLQMNSLKPEDTAVYYCAADSRSWTGYYYWGQGTQVTVSS high polyreactivity

Note, next up: QVQLVESGGGLVQAGGSLPLSCAASGGTFRGNAMGWYRQAPGKERELVAAITGSGGSTYYADSVTGRFTISRDNAKNTVYLQMNSLKPEDSAVYYCAVDRASRRTYNQYGYWGQGTQVTVSS high polyreactivity

Note, next up: QVQLVESGGGLVQAGGSLRLSCAASGSIFKYYSMGWYRQAPGKERELVAAITIGGNTNYADSVKGRFTISRDNAKNTVYLQLNSLKPEDTAVYYCATGGYYSAIVYGGYDYWGQGTQVTVSS low polyreactivity

Note, next up: QVQLVESGGGLVQAGGSLRLSCAASGFIFYLYTMGWYRQAPGKERELVAAIDYSGASTNYADSVKGRFTISRDNAKNTVYVQRNSQKPEDTAVYYCAVNPEVLYHSWTLDYWGQGTQVTVSS low polyreactivity

###

Test: yeast display, Sf9 membrane polyspecificity reagent, FACS + sequencing; frameworks hold sequencing errors
metric.name: polyreactivity (PSR sort gate)

Worked examples, 6 sequences total:
• QVQLVESGAGLVQAGGSLRLSCAASGRTFGRYAMAWYRQAPGKERELVAAINNGGGTYYADSVKGLFTISRDNAKNTVYLLINSLYPEDTAVYYCAAATRKRVGSYYYWGQGTQVTVSS = high polyreactivity
• QVQLVESGGGLVQAGGSLRLSCAASGSTLWGYAMGWYRPAPGKERELVAAITSSGGITYYADSVKGRFTISRDNAKNTVYLQMNSLKPEDTAVYYCAVDYYVVGWTYLYYYRGQGTQVTVSS = low polyreactivity
• QVQLVESGGGLVQAGGSLRLSCAASGITFEPNDMGWYRQAPGKERELVAAISWSGGDTYYADSVKGRFTISRDNAKNTVYLQMNSLKPEDTAVYYCAAESWVAYEYWGQGTQVTVSS = low polyreactivity
• QVQLVESGGGLVQAGGSLRLSCADSGSTFYYYAMGWYRQAPGKERELVAAISTSGGSTYYADSVKGRFTISRDNAKNTVYFQMNSLKPEDTAVYYCAARYRRGMGYWGQGTQVTVSS = high polyreactivity
• QVQLVESGGGLVQAGGSLRLSCAASGSTFTPYVMGWYRQAPGKEREVVAAISNVGRTYYADSVKGRFTISRDNAKNTVYLQMNSLKPEDTAVYYCAVRRDKNYYDWGQGTQVTVSS = high polyreactivity
• QVQLVESGGGLVQAGGSLRLSCAASGQTFYYYAMGWYRQAPGKERELVAAINSSGGITFYADSVKGRFTISRDNAKNTVYLQMNSLKPEDTAVYYCAAGGRSKRYVYWGQGTQVTVSS = low polyreactivity

I have this sequence here, QVQLVESGGGLVQAGGSLRLSCAASGSTFRWYTMGWYRQATGKERDLVAAINQSGSRTYYADSVKGRFTISRDNAKNTVYLQMNSLKPEDTAVYYCNAKSYKSPHTYYYWGQGTQVTVSS , and I need its recorded polyreactivity (PSR sort gate). high polyreactivity

Note, next up: QVQLVESGGGLVQAGGSLRLSCAASGSTLYQYTMGWYRQAPGKERELVAGISRRGGSTYYADSVKGRFTISRDNAKNTVYLQMNSLKPEDTAVYYCAKRPPYIAWYGYNGDYWGQGTQVTVSS high polyreactivity

Note, next up: QVQLVESGGGLVQAGGSLRLSCAASGSTFQVYAMGWYRQAPGKERELVAAISYRDGNTYYADSVKGRFTISRDNAKNTFYLQMNSLKPEDTAVYYCNAGLYLPSGYRRSNGYESDYWGQGTQVTVSS high polyreactivity

Note, next up: QVQLVESGAGLVQAGGSLRISCAASASIFAYYVMGRYREAPGKERELVAAITRSGSPYYADSVKGRFTISRDNAKNTVYLQMNSLKPEDTAVYYCAAPTDFLFWEFDYWGQGTQVTVSS low polyreactivity

Note, next up: QVQLVESGGGLVQAGGSLRLSCAASGGIFHVYGMGWYRQAPGKERELVAAISYSGASTSYADSVKGRFTISRDNAKNTVYLQMNSLKPEDTAVYYCAAKVYYRRYRSGYDYWGQGTQVTVSS high polyreactivity

Values from the nanobody polyreactivity screen of Harvey et al. (2022)
